test_target: T1, human ROR1 on cells (HEK293T-hROR1, PANC-1, A549) (human, UniProt Q01973 30-937)
T1 construct: whole, on cells; one molecule for the three cell lines; also called huROR1; cell surface ROR1
T1 sequence (Q01973 30-937): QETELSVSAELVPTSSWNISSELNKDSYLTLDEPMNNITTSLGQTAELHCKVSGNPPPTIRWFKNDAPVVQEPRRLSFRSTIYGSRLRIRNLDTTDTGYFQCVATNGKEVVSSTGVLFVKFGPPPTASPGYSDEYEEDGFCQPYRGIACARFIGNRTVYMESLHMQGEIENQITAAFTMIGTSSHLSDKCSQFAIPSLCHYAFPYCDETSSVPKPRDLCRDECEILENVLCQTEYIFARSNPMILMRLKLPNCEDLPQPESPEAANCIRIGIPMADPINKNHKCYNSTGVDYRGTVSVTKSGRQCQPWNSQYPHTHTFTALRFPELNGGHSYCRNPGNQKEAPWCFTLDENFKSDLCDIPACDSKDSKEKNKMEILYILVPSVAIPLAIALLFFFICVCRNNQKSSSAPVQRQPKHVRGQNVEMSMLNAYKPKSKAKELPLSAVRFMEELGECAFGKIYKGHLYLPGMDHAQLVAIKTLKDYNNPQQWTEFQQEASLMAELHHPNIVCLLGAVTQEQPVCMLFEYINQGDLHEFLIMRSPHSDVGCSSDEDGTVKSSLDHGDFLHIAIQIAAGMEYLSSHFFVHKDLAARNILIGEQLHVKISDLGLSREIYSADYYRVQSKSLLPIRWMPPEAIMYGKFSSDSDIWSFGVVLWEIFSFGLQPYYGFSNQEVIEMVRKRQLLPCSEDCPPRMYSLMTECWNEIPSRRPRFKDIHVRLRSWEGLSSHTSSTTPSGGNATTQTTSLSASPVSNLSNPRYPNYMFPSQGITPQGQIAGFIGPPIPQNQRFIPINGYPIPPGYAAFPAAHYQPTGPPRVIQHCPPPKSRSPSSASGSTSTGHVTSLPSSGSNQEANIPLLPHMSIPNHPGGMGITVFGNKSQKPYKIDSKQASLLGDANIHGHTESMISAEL
assay_summary: flow cytometry, PANC-1 cells
measured_property: Max
Answers are plain numbers.

Here's what some known entries look like.
PR005348 (antibody, human IgG1, V domains shown, HCAb (heavy chain-only, human IgG1 Fc), no light chain) VH: EVQLVESGGGLVKPGGSLRLSCAASGFTFSDYYMSWIRQTPGKGLEWVSYISRSGSTKYYADSVKGRFTISRDNAKNSLYLQMNSLRAEDTAVYYCARDAPSSNSDWVSLHFDHWGQGTLVTVSS    10200
PR005338 (antibody, human IgG1, V domains shown, HCAb (heavy chain-only, human IgG1 Fc), no light chain) VH: EVQLVESGGGLVKPGGSLRLSCAASGFTFSDYYMSWIRQAPGKGLEWISYISSSGTTIHYADSVKGRFTISRDNAKNSLYLQMNSLRTEDTAVYYCARDAPSSNSDWVSLQFDYWGQGTLVTVSS    12700
PR005337 (antibody, human IgG1, V domains shown, HCAb (heavy chain-only, human IgG1 Fc), no light chain) VH: EVQLVESGGGLVKPGGSLRLSCAASGFIFSDYYMSWIRQAPGKGLEWVSYISSSGSTIHYADSVKGRFTVSRDNAKNSLYLQMNSLRTEDTAVYYCARDPPTSNSDWVSLHFDHWGQGTLVTVSS    14700

Now for a further binder.
query: Tell me the measured Max of PR005347 (antibody, human IgG1, V domains shown, HCAb (heavy chain-only, human IgG1 Fc), no light chain) VH: EVQLVESGGGLVKPGGSLRLSCVTSGFTFSDYYMSWIRQAPGKGMEWISYISTTGSTKNYANSVKGRFTISRDNAKSSLYLQMNSLRAEDTAAYYCARVPPSNASWYEDFDYWGQGTLVTVSS , please.
result: 16400
